Assay: Toxicity liver stage against HepG2, at 10uM
Type: cell-based
Design: test concentration 10 uM, cell line HepG2-A16-CD81EGFP
Details: human, HepG2-A16-CD81EGFP cells; read-out: INHIBITION
cytotoxicity at 10 µM values by entry
Report the figure in % without appending any unit label.

The compound listed as CC1=N[C@@]2(CC[C@@H]3CN(CC4CC4)C[C@@H]32)C(=O)N1CC1CC1 shows cytotoxicity at 10 µM equal to 3.82

The compound listed as CC(C)C1CN(C(=O)c2cc(C3CC3)n[nH]2)CCC(=O)N1CC1CC1 (centres undefined) shows cytotoxicity at 10 µM equal to -9.55

The compound listed as COCCCN1CCCCC12CC(=O)N(Cc1ccccn1)C2 (centres undefined) shows cytotoxicity at 10 µM equal to 1.95

The compound listed as Fc1cnc(N2CCCn3c(nnc3Cn3cccn3)C2)nc1 shows cytotoxicity at 10 µM equal to 4.53

The compound listed as Cc1ccc2c(c1)Oc1ncccc1C(=O)N2 shows cytotoxicity at 10 µM equal to 5.15

The compound listed as O=C1Nc2ccccc2CC12CCCN2Cc1ccc(C(F)(F)F)cc1 (centres undefined) shows cytotoxicity at 10 µM equal to 30.2

The compound listed as CC(C)NC(=O)N1CC[C@@H]2CN(Cc3ccccc3)S(=O)(=O)[C@@H]2CC1 shows cytotoxicity at 10 µM equal to 9.62

The compound listed as COCCN1CC(C(=O)Nc2ccc3c(c2)CCC(=O)N3C)CC1=O (centres undefined) shows cytotoxicity at 10 µM equal to 6.18

The compound listed as CSc1ccccc1CN1C[C@H]2C(=O)N(CC3CC3)C[C@@]2(C(=O)O)C1 shows cytotoxicity at 10 µM equal to 0.666

The compound listed as NCC(=O)N1CCCC(O)(CN2CCN(c3ccccc3)CC2)CC1 (centres undefined) shows cytotoxicity at 10 µM equal to -7.58

The compound listed as CS(=O)(=O)CCN(CCc1cccc(F)c1)C1CC1 shows cytotoxicity at 10 µM equal to 11.4

The compound listed as CCCc1cc(NC2CCc3nc(CC)nn3C2)n2ncnc2n1 (centres undefined) shows cytotoxicity at 10 µM equal to -16.3

The compound listed as Cc1cc(N2CCC(NCCOc3ccccc3)CC2)nc(C)n1 shows cytotoxicity at 10 µM equal to -6.11

The compound listed as COCC(NC1CSCCSC1)c1ccnn1C (centres undefined) shows cytotoxicity at 10 µM equal to 4.34

The compound listed as Cc1cc(N[C@H]2CCCC[C@@H]2O)n2nccc2n1 shows cytotoxicity at 10 µM equal to -1.42

The compound listed as CCCN(CC(F)(F)F)S(=O)(=O)c1cc(C(N)=O)n(C)c1 shows cytotoxicity at 10 µM equal to -4.15

The compound listed as CC1CCCN(CCNC(=O)c2scnc2Cl)C1 (centres undefined) shows cytotoxicity at 10 µM equal to -6.06

The compound listed as Cc1ccsc1CN1CCC(c2cc(C(C)C)n[nH]2)CC1 shows cytotoxicity at 10 µM equal to 1.13

The compound listed as Cc1ccc(NC(=O)CNC(C)Cc2ccsc2)cc1F (centres undefined) shows cytotoxicity at 10 µM equal to 9.17

The compound listed as COCCn1ccnc1CN(Cc1ccccn1)CC(C)C shows cytotoxicity at 10 µM equal to 4.96

The compound listed as COCCNC(=O)NCCCOC1CCCc2ccccc21 (centres undefined) shows cytotoxicity at 10 µM equal to 11.7

The compound listed as CSCCC(=O)N1CCC(CCC(=O)NCC2CCCO2)CC1 (centres undefined) shows cytotoxicity at 10 µM equal to 10.7

The compound listed as CCC(=O)N1CCCCC[C@@H]2[C@@H]1[C@H](c1cccc(F)c1)CN2C shows cytotoxicity at 10 µM equal to 8.63

The compound listed as COCCC1(C(=O)O)CCCN(Cc2cc3c(cc2C)OCO3)C1 (centres undefined) shows cytotoxicity at 10 µM equal to -2.37
